The entries below come with measured pIC50 values attached.
Tested on: chloroquine sensitive (CQS) strain (NF54) of P. falciparum
procedure-text: In vitro antiplasmodial activity, Assay A (parasite lactate dehydrogenase assay)
Type: cell-based
condition-info: Plasmodium falciparum
pIC50: −log10 of the molar value.

CC(C)(O)c1cccc(-c2ncnc3cc(-c4ccc([S@@](C)(=N)=O)cc4)oc23)c1F [Compound D209]: > 7.82
CC(C)(O)c1cccc(-c2ncnc3cc(-c4ccc(C(=O)N5C[C@@H]6C[C@H]5CO6)cc4)oc23)c1F [Compound D197]: > 7.82
C[C@H]1CN(C(=O)c2ccc(-c3cc4ncnc(-c5cccc(C(C)(C)O)c5F)c4o3)cc2)CCO1 [Compound D191]: > 7.82
CC(C)(O)c1cccc(-c2ncnc3cc(-c4ccc([S@](C)(=N)=O)cc4)oc23)c1F [Compound D210]: > 7.82
CC(C)(O)c1cc(-c2ncnc3cc(-c4ccc(C5(C(=O)N6C[C@@H]7C[C@H]6CO7)CC5)cc4)oc23)ccn1 [Compound P23]: < 7.30

Which pIC50 is listed for CC1COCC(C)N1C(=O)c1ccc(-c2cc3ncnc(-c4ccnc(C(C)(C)O)c4)c3o2)cc1 (stereo not shown) [Compound D171] ?
< 7.30

Which pIC50 is listed for CC(C)(O)c1cccc(-c2ncnc3cc(-c4ccc(C(=O)N5CCOCC5)cc4)oc23)c1 [Compound P13] ?
< 7.30

----------
system-tested: human PI4Kβ (HuPI4Kβ) (Homo sapiens (Human))
procedure-text: HuPI4Kβ lipid kinase inhibition, ADP-Glo Kinase Assay
condition-info: recombinant enzyme
measure: IC50

CC(C)(O)c1cc(-c2ncnc3cc(-c4ccc(C(=O)N5CCOCC5)cc4)oc23)ccn1: > 500 nM
CC(C)(O)c1cccc(-c2ncnc3cc(-c4ccc(S(C)(=O)=O)cc4)oc23)c1F: 100 to 500 nM
C[C@@H]1CN(C(=O)c2ccc(-c3cc4ncnc(-c5ccnc(C(C)(C)O)c5)c4o3)cc2)C[C@H](C)O1: > 500 nM

Then there is this compound:
Which IC50 is listed for C[C@@H]1COCCN1C(=O)c1ccc(-c2cc3ncnc(-c4ccnc(C(C)(C)O)c4)c3o2)cc1 ?
> 500 nM

----------
System: sensitive (NF54) strains of P. falciparum
procedure-text: In vitro P. falciparum assay, modified [3H]hypoxanthine incorporation assay
Type: cell-based
condition-info: Plasmodium falciparum; NF54 strain, growth inhibition, Table 2; read-out: PfNF54 IC50
pIC50: −log10 of the molar value.
The entries below come with measured pIC50 values attached.

Which pIC50 is listed for CC(C)(O)c1cccc(-c2ncnc3cc(-c4ccc(C(=O)N5CCOCC5)cc4)oc23)c1F [Compound D183] ?
> 8.00

Which pIC50 is listed for CN1CCN(C(=O)c2ccc(-c3cc4ncnc(-c5ccnc(C(C)(C)O)c5)c4o3)cc2)CC1 [Compound C77] ?
7.30 to 8.00

Which pIC50 is listed for C[C@@H]1COCCN1C(=O)c1ccc(-c2cc3ncnc(-c4ccnc(C(C)(C)O)c4)c3o2)cc1 [Compound C75] ?
> 8.00

Which pIC50 is listed for CC(C)(O)c1cc(-c2ncnc3cc(-c4ccc(C(=O)N5CCOCC5)cc4)oc23)ccn1 [Compound C74] ?
7.30 to 8.00

Which pIC50 is listed for CC(C)(O)c1cccc(-c2ncnc3cc(-c4ccc(S(C)(=O)=O)cc4)oc23)c1F [Compound D149] ?
> 8.00

Which pIC50 is listed for C[C@@H]1CN(C(=O)c2ccc(-c3cc4ncnc(-c5ccnc(C(C)(C)O)c5)c4o3)cc2)C[C@H](C)O1 [Compound C76] ?
> 8.00

Which pIC50 is listed for CC(C)(O)c1cccc(-c2ncnc3cc(-c4ccc(C(=O)N5C[C@@H]6C[C@H]5CO6)cc4)oc23)c1F [Compound D197] ?
> 8.00

----------
Tested on: chloroquine sensitive (CQS) strain (NF54) of P. falciparum
procedure-text: In vitro antiplasmodial activity, Assay A (parasite lactate dehydrogenase assay)
Format: cell-based
condition-info: Plasmodium falciparum
measure: IC50

Some solved cases for reference:
Cn1cc(-c2cc3ncnc(-c4cccc(S(=O)(=O)C5CC5)c4)c3o2)ccc1=O: > 50 nM
C[C@@H]1CN(C(=O)c2ccc(-c3cc4ncnc(-c5cccc(C(C)(C)O)c5F)c4o3)cc2)C[C@H](C)O1: < 15 nM
CC(C)(O)c1cccc(-c2ncnc3cc(-c4ccc(C(=O)N5C[C@@H]6C[C@H]5CO6)cc4)oc23)c1: < 15 nM
C[C@@H]1CN(C(=O)c2ccc(-c3cc4ncnc(-c5cccc(C(C)(C)O)c5F)c4o3)cc2)CCO1: < 15 nM
CC(C)(O)c1cc(F)cc(-c2ncnc3cc(-c4ccc(C(=O)N5C[C@@H]6C[C@H]5CO6)cc4)oc23)c1: < 15 nM
C[C@@H]1COCCN1C(=O)c1ccc(-c2cc3ncnc(-c4ccnc(C(C)(C)O)c4)c3o2)cc1: 15 to 50 nM

Return IC50 measured with chloroquine sensitive (CQS) strain (NF54) of P. falciparum given this compound: CC(C)(O)c1cccc(-c2ncnc3cc(-c4ccc(C(=O)N5C[C@H]6C[C@@H]5CO6)cc4)oc23)c1
< 15 nM

----------
System: chloroquine sensitive (CQS) strain (NF54) of P. falciparum
procedure-text: In vitro antiplasmodial activity, Assay A (parasite lactate dehydrogenase assay)
Format: cell-based
condition-info: Plasmodium falciparum
pIC50: −log10 of the molar value.
measure: pIC50

Return pIC50 measured with chloroquine sensitive (CQS) strain (NF54) of P. falciparum given this molecule: C[C@@H]1CN(C(=O)c2ccc(-c3cc4ncnc(-c5cccc(C(C)(C)O)c5F)c4o3)cc2)C[C@@H](C)O1
> 7.82

Return pIC50 measured with chloroquine sensitive (CQS) strain (NF54) of P. falciparum given this molecule: CC(C)(O)c1nccc(-c2ncnc3cc(-c4ccc(S(C)(=O)=O)cc4)oc23)c1F
> 7.82

----------
Test system: chloroquine sensitive (CQS) strain (NF54) of P. falciparum
procedure-text: In vitro antiplasmodial activity, Assay A (parasite lactate dehydrogenase assay)
Format: cell-based
condition-info: Plasmodium falciparum
pIC50: −log10 of the molar value.
measure: pIC50

CC(C)(O)c1cc(F)cc(-c2ncnc3cc(-c4ccc(C(=O)N5CCOCC5)cc4)oc23)c1: > 7.82

Return pIC50 measured with chloroquine sensitive (CQS) strain (NF54) of P. falciparum given this molecule: CC(C)(O)c1cc(F)cc(-c2ncnc3cc(-c4ccc(C(=O)N5C[C@H]6C[C@@H]5CO6)cc4)oc23)c1
> 7.82

Return pIC50 measured with chloroquine sensitive (CQS) strain (NF54) of P. falciparum given this molecule: COC(=O)c1cccc(-c2cc3ncnc(-c4ccnc(C(C)(C)O)c4)c3o2)c1
> 7.82

Return pIC50 measured with chloroquine sensitive (CQS) strain (NF54) of P. falciparum given this molecule: C[C@H]1COCCN1C(=O)c1ccc(-c2cc3ncnc(-c4ccnc(C(C)(C)O)c4)c3o2)cc1
7.30 to 7.82

----------
Tested on: chloroquine sensitive (CQS) strain (NF54) of P. falciparum
procedure-text: In vitro antiplasmodial activity, Assay A (parasite lactate dehydrogenase assay)
Format: cell-based
condition-info: Plasmodium falciparum
pIC50: −log10 of the molar value.
measure: pIC50

Some solved cases for reference:
CC(C)(O)c1cccc(-c2ncnc3cc(-c4ccc(S5(=O)=NCCC5)cc4)oc23)c1F (stereo not shown): > 7.82
CC(C)(O)c1nccc(-c2ncnc3cc(-c4ccc(C(=O)N5CCOCC5)cc4)oc23)c1F: > 7.82
CC(C)(O)c1cc(-c2ncnc3cc(-c4ccc(S(C)(=O)=O)cc4)oc23)cc(F)n1: < 7.30

Then there is this molecule:
Which pIC50 is listed for CC1CN(C(=O)c2ccc(-c3cc4ncnc(-c5ccnc(C(C)(C)O)c5)c4o3)cc2)CC(C)O1 (stereo not shown) ?
> 7.82

----------
system-tested: human PI4Kβ (HuPI4Kβ) (Homo sapiens (Human), UniProt Q9UBF8)
Sequence (Q9UBF8 whole entry): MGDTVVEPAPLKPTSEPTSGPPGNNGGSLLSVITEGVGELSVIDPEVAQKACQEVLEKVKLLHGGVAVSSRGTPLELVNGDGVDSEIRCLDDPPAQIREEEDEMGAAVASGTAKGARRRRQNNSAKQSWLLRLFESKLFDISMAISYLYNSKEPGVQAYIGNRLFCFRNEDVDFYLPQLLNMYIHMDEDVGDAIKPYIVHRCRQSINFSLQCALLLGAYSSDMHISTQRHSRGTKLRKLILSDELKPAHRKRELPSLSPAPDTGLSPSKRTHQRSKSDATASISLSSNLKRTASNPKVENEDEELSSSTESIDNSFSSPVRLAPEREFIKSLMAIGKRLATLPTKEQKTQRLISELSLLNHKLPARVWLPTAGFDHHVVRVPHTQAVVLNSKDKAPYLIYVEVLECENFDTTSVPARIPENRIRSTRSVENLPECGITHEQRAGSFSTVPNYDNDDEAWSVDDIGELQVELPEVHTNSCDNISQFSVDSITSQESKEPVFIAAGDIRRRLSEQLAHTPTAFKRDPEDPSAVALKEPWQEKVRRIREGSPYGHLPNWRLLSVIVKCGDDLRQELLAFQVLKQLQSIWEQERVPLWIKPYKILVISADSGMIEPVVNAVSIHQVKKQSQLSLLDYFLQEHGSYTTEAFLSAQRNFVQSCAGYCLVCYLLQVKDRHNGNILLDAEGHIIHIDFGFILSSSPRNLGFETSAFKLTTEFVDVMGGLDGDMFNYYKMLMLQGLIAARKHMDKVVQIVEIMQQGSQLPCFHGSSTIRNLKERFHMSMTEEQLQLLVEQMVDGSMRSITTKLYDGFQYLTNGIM
procedure-text: HuPI4Kβ lipid kinase inhibition, ADP-Glo Kinase Assay
condition-info: recombinant enzyme
pIC50: −log10 of the molar value.
The entries below come with measured pIC50 values attached.

CN1CCN(C(=O)c2ccc(-c3cc4ncnc(-c5ccnc(C(C)(C)O)c5)c4o3)cc2)CC1: < 6.30
CC(C)(O)c1cccc(-c2ncnc3cc(-c4ccc(C(=O)N5CCOCC5)cc4)oc23)c1F: 6.30 to 7.00

Then there is this molecule:
Which pIC50 is listed for CC(C)(O)c1cccc(-c2ncnc3cc(-c4ccc(C(=O)N5C[C@@H]6C[C@H]5CO6)cc4)oc23)c1F ?
6.30 to 7.00

----------
The entries below come with measured IC50 values attached.
System: sensitive (NF54) strains of P. falciparum
procedure-text: In vitro P. falciparum assay, modified [3H]hypoxanthine incorporation assay
Format: cell-based
condition-info: Plasmodium falciparum; NF54 strain, [3H]hypoxanthine incorporation; read-out: In vitro P. falciparum growth inhibition IC50

Some solved cases for reference:
CC(C)(O)c1cccc(-c2ncnc3cc(-c4ccc(S5(=O)=NCCCC5)cc4)oc23)c1F (centres unmarked): < 10 nM
CC(C)(O)c1cc(-c2ncnc3cc(-c4ccc(S(C)(=O)=O)cc4)oc23)cc(F)n1: 10 to 50 nM
CC(C)(O)c1cc(-c2ncnc3cc(-c4ccc(S(C)(=O)=O)cc4)oc23)ccn1: 10 to 50 nM

Which IC50 is listed for CC(C)(O)c1cccc(-c2ncnc3cc(-c4ccc(S(C)(=N)=O)cc4)oc23)c1F (centres unmarked) ?
< 10 nM

Which IC50 is listed for CC(C)(O)c1cccc(-c2ncnc3cc(-c4ccc([S@@](C)(=N)=O)cc4)oc23)c1F ?
< 10 nM

Which IC50 is listed for CN1CCN(C(=O)c2ccc(-c3cc4ncnc(-c5cccc(C(C)(C)O)c5F)c4o3)cc2)CC1 ?
< 10 nM

Which IC50 is listed for CC(C)(O)c1cccc(-c2ncnc3cc(-c4ccc(C(=O)N5C[C@@H]6C[C@H]5CO6)cc4)oc23)c1F ?
< 10 nM

Which IC50 is listed for CC(C)(O)c1cccc(-c2ncnc3cc(-c4ccc([S@](C)(=N)=O)cc4)oc23)c1F ?
< 10 nM
